Protocol: Plasma stability assay, human plasma
Assay type: in vitro ADME
Applied Conditions: 37° C., 2 μM, 1440 min (as headed)
Measurement Name: % remaining at time point in minutes, 1440 min (%)

| Compound | Result Value |
| --- | --- |
| C=C1CC[C@@]2(O)C3Cc4ccc(OC(=O)OCCCCCCCCCCCC)c5c4[C@@]2(CCN3CC2CC2)[C@H]1O5 | 115.1 |
| CCCCCCCCCCCCCCCC(=O)OC1CCCn2c1nc(C)c(CCN1CCC(c3noc4cc(F)ccc34)CC1)c2=O (centres unmarked) [Paliperidone palmitate, reference compound] | 104.1 |
| C=C1CC[C@@]2(O)C3Cc4ccc(OC(=O)CCCCCCC/C=C/CCCCCCCC)c5c4[C@@]2(CCN3CC2CC2)[C@H]1O5 | 109.0 |
| CCCCCCCCCCCC(=O)OCN1C(=O)CCc2ccc(OCCCCN3CCN(c4cccc(Cl)c4Cl)CC3)cc21 [Aripiprazole lauroxil, reference compound] | 75.5 |
| C=C1CC[C@@]2(O)C3Cc4ccc(OCOC(=O)OCCCCCCCCCCCC)c5c4[C@@]2(CCN3CC2CC2)[C@H]1O5 | 112.5 |

* * *

Target Entity: MOR (Homo sapiens)
Construct: expressed in transfected cells; membranes prepared from them
Sequence (P35372 whole entry): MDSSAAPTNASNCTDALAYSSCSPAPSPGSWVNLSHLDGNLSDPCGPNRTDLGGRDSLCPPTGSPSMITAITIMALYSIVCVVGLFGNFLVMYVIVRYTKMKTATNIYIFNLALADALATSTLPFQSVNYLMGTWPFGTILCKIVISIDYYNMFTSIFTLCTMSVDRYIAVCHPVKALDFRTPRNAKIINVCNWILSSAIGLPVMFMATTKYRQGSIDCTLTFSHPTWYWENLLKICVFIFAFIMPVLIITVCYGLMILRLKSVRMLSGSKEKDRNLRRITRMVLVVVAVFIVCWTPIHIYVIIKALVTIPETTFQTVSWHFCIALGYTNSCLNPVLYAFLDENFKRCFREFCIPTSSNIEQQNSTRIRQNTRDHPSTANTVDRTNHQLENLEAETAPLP
Protocol: Opioid receptor binding assay, MOR ([3H]DAMGO)
Applied Conditions: MOR, MaxDose 10000 nM
Measurement Name: %Inh@MaxDose (%)

| Compound | Measurement Name | Value Unit | Result Value |
| --- | --- | --- | --- |
| CCCCCCCCOC(=O)Oc1ccc2c3c1O[C@H]1C(=O)CC[C@@]4(O)C(C2)N(CC2CC2)CC[C@]314 [Compound 23] | %Inh@MaxDose | % | 98.7 |
| C=C1CC[C@@]2(O)C3Cc4ccc(OC(=O)OCCCCCCCCCCCC)c5c4[C@@]2(CCN3CC2CC2)[C@H]1O5 [Compound 6] | %Inh@MaxDose | % | 102.5 |
| C=C1CC[C@@]2(O)C3Cc4ccc(OC(=O)OCCCCCCCCCCCCC)c5c4[C@@]2(CCN3CC2CC2)[C@H]1O5 [Compound 30] | %Inh@MaxDose | % | 82.5 |
| C=C1CC[C@@]2(O)C3Cc4ccc(OCOC(=O)OCCCCCCCCCCCC)c5c4[C@@]2(CCN3CC2CC2)[C@H]1O5 [Compound 24] | %Inh@MaxDose | % | 88.7 |

* * *

Protocol: Plasma stability assay, human plasma
Format: in vitro ADME
Applied Conditions: 37° C., 2 μM, 120 min (as headed)
Measurement Name: % remaining at time point in minutes, 120 min (%)

| Compound | Value Unit | Result Value |
| --- | --- | --- |
| CCCCCCCCCCCCCCCC(=O)OC1CCCn2c1nc(C)c(CCN1CCC(c3noc4cc(F)ccc34)CC1)c2=O (centres unmarked) [Paliperidone palmitate, reference compound] | % | 97.6 |
| C=C1CC[C@@]2(O)C3Cc4ccc(OCOC(=O)OCCCCCCCCCCCC)c5c4[C@@]2(CCN3CC2CC2)[C@H]1O5 | % | 102.3 |
| CCCCCCCCCCCC(=O)OCN1C(=O)CCc2ccc(OCCCCN3CCN(c4cccc(Cl)c4Cl)CC3)cc21 [Aripiprazole lauroxil, reference compound] | % | 80 |
| C=C1CC[C@@]2(O)C3Cc4ccc(OC(=O)OCCCCCCCCCCCC)c5c4[C@@]2(CCN3CC2CC2)[C@H]1O5 | % | 102 |
| C=C1CC[C@@]2(O)C3Cc4ccc(OC(=O)CCCCCCC/C=C/CCCCCCCC)c5c4[C@@]2(CCN3CC2CC2)[C@H]1O5 | % | 82.5 |
